For each entry below, report its koff value.
target: cynomolgus monkey MuSK (cynomolgus monkey, UniProt A0A2K5USF6 24-487); assay: Biacore, MuSK on chip (200RU), 66.7 nM mAb, dissociation pH 7.4
Sequence (A0A2K5USF6 entry or part of it): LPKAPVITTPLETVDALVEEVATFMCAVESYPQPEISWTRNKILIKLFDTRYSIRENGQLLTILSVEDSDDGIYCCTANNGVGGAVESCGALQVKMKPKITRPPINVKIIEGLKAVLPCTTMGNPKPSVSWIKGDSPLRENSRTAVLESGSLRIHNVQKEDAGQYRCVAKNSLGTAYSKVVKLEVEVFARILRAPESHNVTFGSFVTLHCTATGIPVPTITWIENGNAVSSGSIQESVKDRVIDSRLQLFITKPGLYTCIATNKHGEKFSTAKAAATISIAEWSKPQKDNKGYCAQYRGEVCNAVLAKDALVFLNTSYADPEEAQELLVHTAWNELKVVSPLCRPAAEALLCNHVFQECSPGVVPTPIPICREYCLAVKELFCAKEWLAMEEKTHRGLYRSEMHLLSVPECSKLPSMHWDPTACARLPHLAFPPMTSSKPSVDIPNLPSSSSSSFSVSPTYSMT
Answers are plain numbers, in s⁻¹.

binder	koff [s⁻¹]
3B2g1m1 (antibody, human IgG1, V domains shown, human IgG1-LALA backbone; produced in HEK293 cells) VH: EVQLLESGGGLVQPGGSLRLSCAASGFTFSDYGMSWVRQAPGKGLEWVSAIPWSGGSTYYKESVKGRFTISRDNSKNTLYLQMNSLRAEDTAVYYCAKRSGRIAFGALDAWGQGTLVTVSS VL: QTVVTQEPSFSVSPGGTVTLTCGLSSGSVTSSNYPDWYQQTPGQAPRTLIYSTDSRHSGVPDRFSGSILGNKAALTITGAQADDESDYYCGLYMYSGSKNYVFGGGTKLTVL	0.00117
3B2g2m1 (antibody, human IgG1, V domains shown, human IgG1-LALA backbone; produced in HEK293 cells; also called MuSK agonist antibody 3B2g2m1; MuSK-mAb 3B2g2m1) VH: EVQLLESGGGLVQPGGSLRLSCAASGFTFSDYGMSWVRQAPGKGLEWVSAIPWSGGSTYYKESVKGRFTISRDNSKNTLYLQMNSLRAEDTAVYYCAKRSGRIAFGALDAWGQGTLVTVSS VL: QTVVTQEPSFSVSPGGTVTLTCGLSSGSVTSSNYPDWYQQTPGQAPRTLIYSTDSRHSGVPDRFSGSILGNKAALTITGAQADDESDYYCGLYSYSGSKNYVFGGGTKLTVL	0.00109
3B2g1m2 (antibody, human IgG1, V domains shown, human IgG1-LALA backbone; produced in HEK293 cells) VH: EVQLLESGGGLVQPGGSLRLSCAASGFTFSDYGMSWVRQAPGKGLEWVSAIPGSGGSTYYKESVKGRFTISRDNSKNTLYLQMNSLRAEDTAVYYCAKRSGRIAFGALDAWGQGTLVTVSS VL: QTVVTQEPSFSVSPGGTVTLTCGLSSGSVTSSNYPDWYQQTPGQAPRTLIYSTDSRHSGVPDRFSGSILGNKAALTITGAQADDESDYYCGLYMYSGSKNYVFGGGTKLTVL	0.00183
3B2g2m2 (antibody, human IgG1, V domains shown, human IgG1-LALA backbone; produced in HEK293 cells) VH: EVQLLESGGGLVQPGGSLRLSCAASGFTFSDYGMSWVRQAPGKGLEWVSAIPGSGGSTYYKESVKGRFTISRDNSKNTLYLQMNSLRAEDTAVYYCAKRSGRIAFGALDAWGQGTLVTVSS VL: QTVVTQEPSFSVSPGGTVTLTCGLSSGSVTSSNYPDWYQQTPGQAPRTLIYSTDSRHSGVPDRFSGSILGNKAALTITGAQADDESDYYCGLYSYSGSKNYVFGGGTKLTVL	0.00179
3B2g2m4 (antibody, human IgG1, V domains shown, human IgG1-LALA backbone; produced in HEK293 cells) VH: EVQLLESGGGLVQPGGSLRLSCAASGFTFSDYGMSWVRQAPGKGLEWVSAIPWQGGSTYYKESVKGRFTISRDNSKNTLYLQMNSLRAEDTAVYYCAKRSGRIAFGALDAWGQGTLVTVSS VL: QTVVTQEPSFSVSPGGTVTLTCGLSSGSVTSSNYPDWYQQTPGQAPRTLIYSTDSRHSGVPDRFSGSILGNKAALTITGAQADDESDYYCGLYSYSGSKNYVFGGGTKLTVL	0.00088
3B2 (antibody, V domains shown, human IgG1 with the LALA mutations (L234A, L235A); produced in HEK293 cells; also called 3B2 mAb; parental 3B2 Ab) VH: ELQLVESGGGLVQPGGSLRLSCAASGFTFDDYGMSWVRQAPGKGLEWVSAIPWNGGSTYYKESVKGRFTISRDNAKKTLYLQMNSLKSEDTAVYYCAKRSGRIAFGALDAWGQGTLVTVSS VL: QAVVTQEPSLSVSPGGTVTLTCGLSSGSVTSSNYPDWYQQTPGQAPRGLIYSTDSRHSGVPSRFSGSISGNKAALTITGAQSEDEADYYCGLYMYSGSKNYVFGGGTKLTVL	0.00097

For the binder 3B2g1m4 (antibody, human IgG1, V domains shown, human IgG1-LALA backbone; produced in HEK293 cells) VH: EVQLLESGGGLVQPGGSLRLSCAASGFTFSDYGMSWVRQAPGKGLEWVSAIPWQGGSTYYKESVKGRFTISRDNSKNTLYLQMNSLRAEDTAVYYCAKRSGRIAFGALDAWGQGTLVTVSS VL: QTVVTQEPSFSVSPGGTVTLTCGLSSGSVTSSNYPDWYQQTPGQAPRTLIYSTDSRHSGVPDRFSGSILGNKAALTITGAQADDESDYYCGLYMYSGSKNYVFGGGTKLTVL , what koff is on record? 0.00086
